Tested on: U-251
Assay: NCI tumour cell line growth inhibition, 48 h
Activity calls are given as the source filed them. Rule as the data show it: active = GI50 up to about 1.1 µM and inactive = higher.
Can you answer with just one of these options? 1 = active, -1 = inactive

Solved cases below.
{"Compound": "COc1cc(-c2ccccc2)c(OC)cc1CCl", "Qualitative Label": -1}
{"Compound": "O=c1c(F)cn(Cc2c(Cl)cccc2Cl)c(=O)n1Cc1c(Cl)cccc1Cl", "Qualitative Label": -1}
{"Compound": "CC(C)C(/C=C/c1ccc(Cl)c(Cl)c1)=N\\NC(=O)N/N=C(/C=C/c1ccc(Cl)c(Cl)c1)C(C)C", "Qualitative Label": -1}

Req: Outcome? COc1cc2c(cc1OC)C1Cc3ccccc3CN1CCC2 (centres undefined)
Resp: -1

Req: Assay result, entry "O=S1(=O)CCC2=CC(C(F)(F)F)=CC(C(F)(F)F)=CN21" — outcome?
Resp: -1

Req: For this compound, state the assay outcome: CCCCCCCC(=O)OCC1OC(n2cc(F)c(=O)[nH]c2=O)C(NC(=O)OCc2ccccc2)C(O)C1O (centres undefined)
Resp: -1

Req: Which outcome was entered for the compound C[N+](C)(C)CC(=O)N/N=C(\C(=O)Nc1ccc(Cl)cc1)C1C(=O)N(c2ccccc2)N=C1N (centres undefined) in this test?
Resp: -1

Req: // return assay outcome for "COc1ccc2c3c([nH]c2c1)CCN(Cc1ccccc1)C3"
Resp: -1

Req: Called result for O=C(CC(=O)Nc1ccccc1)NNC(c1cc(/N=N/c2ccc(Br)cc2)ccc1O)P(O)O (centres undefined)
Resp: -1

Req: State the result this test recorded for CC(C)NCCCC(C)Nc1ccnc2ccc3nn(C)nc3c12 (centres undefined) .
Resp: -1

Req: Which result was noted for this compound in the test: "O=Nc1c(-c2cccc([N+](=O)[O-])c2)nc2cnccn12"
Resp: -1

---

Below, each entry is listed alongside its reported GI50.
Test system: A549
Test: NCI tumour cell line growth inhibition, 48 h
Activity calls are given as the source filed them. No stated cut-off is given here; in the data, active = GI50 up to about 1.1 µM and inactive = higher.

Previously resolved entries follow.
{"Compound": "COc1cc(C(=O)NNC(=O)c2cc(Br)ccc2NC(=O)c2cccs2)cc(OC)c1OC", "Target Or Test System": "A549", "GI50": "21.2 µM (inactive)"}
{"Compound": "Cc1cc(N(CCC#N)CCC#N)ccc1/C=C(\\NC(=O)/C=C/c1ccccc1)C(=O)NN", "Target Or Test System": "A549", "GI50": "> 100 µM (inactive)"}
{"Compound": "CCN(CC)CC(=O)Nc1c(C(N)=O)nnn1Cc1cc(Cl)c(C(=O)c2ccc(Cl)cc2)c(Cl)c1", "Target Or Test System": "A549", "GI50": "22.3 µM (inactive)"}

Req: Quick check: GI50 of CC1(C)CC2C(=O)c3ccccc3NC2c2ccccc21 (stereo not given) ?
Resp: 6.11 µM (inactive)

Req: Consider the compound shown here: "Cc1ncc(CSC(=N)N)n1Cc1ccccc1" What is its recorded GI50?
Resp: > 100 µM (inactive)

Req: # query: GI50 of entry "CC1(C)O[C@H](C(=O)O)[C@@H](C(=O)O)O1"
Resp: > 100 µM (inactive)

Req: Dear colleague, I am looking for the recorded GI50 of the following compound: C=C1C2CC(OC(C)=O)C3(C)C(c4ccoc4)OC(=O)[C@@H](O)[C@]13OC1C[C@H](OC(C)=O)C(C)(C)[C@H](CC(=O)OC)[C@]12C (stereo not given in full)
Resp: > 100 µM (inactive)

Req: Sample "Cc1ccc(C2=NN=C3C(c4ccccc4)=Nc4ccccc4N3C2)cc1" — what was its GI50?
Resp: 27.7 µM (inactive)

Req: Return reported GI50; argument: O=C(CC(O)(C(F)(F)F)C(F)(F)Cl)CC(O)(C(F)(F)F)C(F)(F)Cl (stereo not given)
Resp: 2.37 µM (inactive)

Req: Can you share its GI50? I mean this compound: "COc1cccc(CCn2c(N)c(C(=O)O)c3ccc([N+](=O)[O-])cc3c2=O)c1"
Resp: 27.8 µM (inactive)

---

Tested on: UO-31
Experiment: NCI tumour cell line growth inhibition, 48 h
Calls of active or inactive are those of the source. Rule as the data show it: active = GI50 up to about 1.1 µM and inactive = higher.
Listed here are compounds together with their documented GI50.

Below: 5 compounds and their reported GI50.
{"Compound": "Nc1c(Br)cc(-c2cc(Br)c(N)c(Br)c2)cc1Br", "GI50": "> 100 µM (inactive)"}
{"Compound": "O=C(CSCC(=O)N/N=C\\c1cccc(Br)c1)N/N=C\\c1cccc(Br)c1", "GI50": "15.5 µM (inactive)"}
{"Compound": "CCN(CC)CC1CCCCN1CC(=O)N1CC(C)C(=O)Nc2ccccc21 (stereo unspecified)", "GI50": "> 100 µM (inactive)"}
{"Compound": "O=C1C=C2SC3C[C@@]24CC1(O)[N+]1=c2c4c(c(O)c4c2=C(C=N4)CC1)N3", "GI50": "1.89 µM (inactive)"}
{"Compound": "COc1ccc2c3c([nH]c2c1)CCN(Cc1ccccc1)C3", "GI50": "12.4 µM (inactive)"}

// next entry
Req: Requested field: GI50. Item: CN1C(=O)C(C)(C)C2(SC(C)(C)C2(C)C)N(C)C1=S (stereo unspecified)
Resp: > 100 µM (inactive)

---

System: KM12
Assay: NCI tumour cell line growth inhibition, 48 h
Active and inactive are the calls of the source. Rule as the data show it: active = GI50 up to about 1.1 µM and inactive = higher.
Form entry, call: pick from class 1 = active, class 0 = inactive

Req: // return assay outcome for "O=c1[nH]cnc2c1ncn2[C@@H]1C[C@H]1CO"
Resp: class 0

Req: Please indicate how the test categorized "CNC(=O)Nc1cc2c3c(c1)CCCN3CCC2" .
Resp: class 0

Req: Test call, this compound: "O=C1c2ccccc2C(=O)c2[nH]c(Cc3ccc(F)cc3)nc21"
Resp: class 0

Req: Name the outcome recorded for "CC1=CC(=O)/C(=C/NC(=S)C(N)=S)C(=O)O1" in the assay.
Resp: class 0

---

Tested on: UACC-62
Experiment: NCI tumour cell line growth inhibition, 48 h
Active and inactive are the calls of the source. Cut-off read from the data, not from the text of the source: active = GI50 up to about 1.1 µM and inactive = higher.
Lab note: assign the record to one of 1 (yes) = active, 0 (no) = inactive

Completed entries (count: 5):
{"Molecule": "COc1ccc(/C=C(/C(=O)O)c2cc(OC)c(OC)c(OC)c2)cc1", "Qualitative Label": "0 (no)"}
{"Molecule": "C1CCN2CC3CCCN4CCCC(C2C1)C34 (configuration not stated)", "Qualitative Label": "0 (no)"}
{"Molecule": "Cc1ccc(C2=NN=C3C(c4ccccc4)=Nc4ccccc4N3C2)cc1", "Qualitative Label": "0 (no)"}
{"Molecule": "CC(C)N1CCOC(c2ccc(O)c(O)c2)C1 (configuration not stated)", "Qualitative Label": "0 (no)"}
{"Molecule": "COc1cccc(CCn2c(N)c(C(=O)O)c3ccc([N+](=O)[O-])cc3c2=O)c1", "Qualitative Label": "0 (no)"}

Req: Returns: the outcome recorded for "CN(C)CCNc1ccc(C(=O)NCCCN(C)CCCNC(=O)c2ccc(NCCN(C)C)c3c(=O)c4ccccc4[nH]c23)c2[nH]c3ccccc3c(=O)c12" in this assay.
Resp: 1 (yes)

Req: GET /call?item= "C/C(=N\Nc1nc2ccccc2o1)c1cc2ccccc2cn1" returns the recorded outcome of this test.
Resp: 1 (yes)

Req: # fetch the recorded call for "Fc1nc(-c2c3ccccc3c3sc4ccccc4n23)nc(N2CCOCCOCCOCCOCC2)n1" here
Resp: 0 (no)

Req: Lab log entry: N#CC(C(=O)/C(=N/NC(=O)c1ccccc1O)C(C#N)c1ccc(Br)cc1)c1ccc(Br)cc1 (configuration not stated) — outcome as called in the assay?
Resp: 0 (no)

Req: Write down the call the test reported for this molecule. Item: "CNc1cccnc1/C=N/N=C(/N)S"
Resp: 1 (yes)

Req: Please share the test call associated with CC(NC(=O)C(NC(=O)CNC(=O)OC(C)(C)C)C(C)C)C(=O)Oc1c(Cl)c(Cl)c(Cl)c(Cl)c1Cl (configuration not stated) .
Resp: 0 (no)

Req: I'd appreciate the recorded outcome for "CCC1([N+](=O)[O-])CN(N=O)C1" from this test.
Resp: 0 (no)

Req: What was the test verdict on "COc1ccc(/C(=N\Nc2ccccn2)c2ccccn2)cc1" ?
Resp: 1 (yes)

Req: What call does the record list for [N-]=[N+]=C1C(=O)C2CC3CC1CC2C3 (configuration not stated) ?
Resp: 0 (no)

Req: What did the test return for "CC1=CC(=O)/C(=C/NC(=S)C(N)=S)C(=O)O1" ?
Resp: 0 (no)

Req: Test call for this molecule, please: "O=C(O)Cn1cnc2c(O)nc(Nc3ccccc3)nc21"
Resp: 0 (no)

Req: Which outcome was assigned to "CN(C)C(=S)/N=C1\SC(=N\c2ccccc2)/C(=N/c2ccccc2)N1c1ccc([N+](=O)[O-])cc1" in this test?
Resp: 0 (no)

Req: Answer briefly: the call reported for "COc1cc2ccc3ccncc3c2cc1OC" in this assay.
Resp: 0 (no)

Req: Record lookup: outcome of this test for "C/C(=C\COP(=O)(O)OP(=O)(O)O)CC/C=C(\C)CNc1c(F)c(F)c(F)c(F)c1F" ?
Resp: 0 (no)

Req: Test call for this molecule, please: "CC(=O)OC1=C(CC(C)(C)C)C(=O)c2ccccc2C1=O"
Resp: 0 (no)

Req: For "C/C(=N\NC(N)=S)c1cc(C)c(C)cc1C" , which call appears in the assay record?
Resp: 0 (no)

Req: Hi team, can someone confirm the assay call for C[N+](C)(C)CC(=O)N/N=C(\C(=O)Nc1ccc(Cl)cc1)C1C(=O)N(c2ccccc2)N=C1N (configuration not stated) ?
Resp: 0 (no)

Req: Recorded test call requested for "Oc1ccc(/C=C\c2nnc(/C=C\c3ccc(O)c(O)c3)s2)cc1O"
Resp: 0 (no)

Req: Please let me know the test result on file for "O=C1C=CC(=O)N1c1ccc(I)cc1" .
Resp: 0 (no)
